Target: Muscarinic acetylcholine receptors; M2 & M3 (Homo sapiens) (UniProt P20309+P08172)
Assay: Selectivity ratio of IC50 for human muscarinic M2 receptor to IC50 for human muscarinic M3 receptor
recorded endpoint: Ratio IC50
Answer with a bare number; do not write a unit.

compound	Ratio IC50
O=C(O[C@H]1C[N+]2(CCCc3ccccc3)CCC1CC2)N(Cc1ccccc1)c1ccccc1.[Br-]	13.3
CCCCN(C(=O)O[C@H]1C[N+]2(CCc3ccccc3)CCC1CC2)c1ccccc1	6.3
CCCCN(C(=O)O[C@H]1C[N+]2(CCOc3ccccc3)CCC1CC2)c1ccccc1.[Br-]	11.1
O=C(O[C@H]1CN2CCC1CC2)N1CCc2ccccc2[C@@H]1c1ccccc1 [SOLIFENACIN SUCCINATE]	4.4
O=C(O[C@H]1C[N+]2(CCOc3ccccc3)CCC1CC2)N(Cc1cc(F)c(F)c(F)c1)c1cccc(F)c1.[Br-]	24
O=C(O[C@H]1CN2CCC1CC2)N(c1ccccc1)c1ccccc1	3.5
O=C(O[C@H]1C[N+]2(CCOc3ccccc3)CCC1CC2)N(Cc1cccs1)c1ccccc1.[Br-]	3.7
Cc1cccc(N(Cc2cc(F)c(F)cc2F)C(=O)O[C@H]2C[N+]3(CCCc4ccccc4)CCC2CC3)c1.[Br-]	33.1

Qu. Look up Ratio IC50: `O=C(Nc1ccccc1-c1ccccc1)OC12CCN(CC1)CC2`
Ans. 2.4

----------
Molecular target: Muscarinic acetylcholine receptor M1 and M3 (Homo sapiens) (UniProt P20309+P11229)
Sequence (P11229 whole entry, looked up): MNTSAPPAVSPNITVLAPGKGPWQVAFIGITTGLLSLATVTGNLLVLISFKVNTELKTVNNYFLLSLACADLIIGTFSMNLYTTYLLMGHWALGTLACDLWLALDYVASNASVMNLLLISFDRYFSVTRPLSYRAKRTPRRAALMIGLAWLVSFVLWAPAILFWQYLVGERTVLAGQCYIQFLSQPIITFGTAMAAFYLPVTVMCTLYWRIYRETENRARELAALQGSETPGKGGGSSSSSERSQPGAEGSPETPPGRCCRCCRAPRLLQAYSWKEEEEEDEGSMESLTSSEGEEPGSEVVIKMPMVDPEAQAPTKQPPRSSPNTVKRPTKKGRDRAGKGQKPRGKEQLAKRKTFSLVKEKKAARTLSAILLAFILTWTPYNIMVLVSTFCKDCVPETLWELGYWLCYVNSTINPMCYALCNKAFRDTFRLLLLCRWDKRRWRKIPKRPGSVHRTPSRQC
Sequence (P20309 whole entry, looked up): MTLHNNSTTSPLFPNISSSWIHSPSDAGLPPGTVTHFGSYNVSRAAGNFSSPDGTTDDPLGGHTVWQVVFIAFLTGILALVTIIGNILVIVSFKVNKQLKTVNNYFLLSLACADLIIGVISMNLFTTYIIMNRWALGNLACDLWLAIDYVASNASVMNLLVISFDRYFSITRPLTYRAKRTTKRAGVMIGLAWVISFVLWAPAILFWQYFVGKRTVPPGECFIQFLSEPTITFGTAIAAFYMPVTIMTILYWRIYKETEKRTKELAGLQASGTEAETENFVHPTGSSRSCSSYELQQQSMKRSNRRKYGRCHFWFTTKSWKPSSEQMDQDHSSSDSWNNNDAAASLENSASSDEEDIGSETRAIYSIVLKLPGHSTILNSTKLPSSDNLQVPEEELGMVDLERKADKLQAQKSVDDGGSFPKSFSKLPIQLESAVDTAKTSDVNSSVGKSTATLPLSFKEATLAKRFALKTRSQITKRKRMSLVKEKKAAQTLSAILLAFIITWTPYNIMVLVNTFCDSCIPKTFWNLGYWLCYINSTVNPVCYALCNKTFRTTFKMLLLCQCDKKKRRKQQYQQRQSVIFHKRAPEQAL
Assay: Selectivity ratio of IC50 for human muscarinic M1 receptor to IC50 for human muscarinic M3 receptor
Below: a set of entries, each annotated with reported Ratio IC50.
Just the number, please.

// below: answered compounds
compound	Ratio IC50
CCCCN(C(=O)O[C@H]1C[N+]2(CCOc3ccccc3)CCC1CC2)c1ccccc1.[Br-]	1.7
O=C(O[C@H]1C[N+]2(CCCc3cccs3)CCC1CC2)N(Cc1ccsc1)c1ccccc1.[Br-]	3.3
O=C(O[C@H]1CN2CCC1CC2)N(Cc1ccccc1)c1ccc(F)cc1	0.5

// next item, Ratio IC50 requested
Qu. Item: `O=C(O[C@H]1C[N+]2(CCOc3ccccc3)CCC1CC2)N(Cc1cccs1)c1ccccc1.[Br-]` Test system: Muscarinic acetylcholine receptor M1 and M3 (Homo sapiens) (UniProt P20309+P11229) Read-out: Ratio IC50 Value: ?
Ans. 1.3

----------
Target: Muscarinic acetylcholine receptors; M2 & M3 (Homo sapiens) (UniProt P20309+P08172)
Assay: Selectivity ratio of IC50 for human muscarinic M2 receptor to IC50 for human muscarinic M3 receptor
# reported Ratio IC50; entries follow
Reply with just the number.

CCCCN(Cc1cccs1)C(=O)O[C@H]1CN2CCC1CC2 4.3

Qu. Field request: Ratio IC50 | item: `O=C(O[C@H]1C[N+]2(CCOc3ccccc3)CCC1CC2)N(Cc1ccccc1)c1ccccc1.[Br-]`
Ans. 3.9

Qu. Ratio IC50 lookup needed for `O=C(O[C@H]1CN2CCC1CC2)N(Cc1cccs1)Cc1cccs1` , thanks.
Ans. 3.8

Qu. Requested read-out: Ratio IC50. Entry: `O=C(O[C@H]1CN2CCC1CC2)N(Cc1ccsc1)c1ccccc1`
Ans. 4.7

Qu. Value lookup for Ratio IC50; key = `CC(C)N(C(=O)O[C@H]1CN2CCC1CC2)c1ccccc1`
Ans. 2.1

Qu. Requested field: Ratio IC50. Item: `O=C(O[C@H]1C[N+]2(CCCc3cccs3)CCC1CC2)N(Cc1ccccc1)c1ccccc1.[Br-]`
Ans. 12.7

Qu. What measured Ratio IC50 goes with `O=C(O[C@H]1CN2CCC1CC2)N(Cc1ccccc1)Cc1cccs1` ?
Ans. 3.95

Qu. Could you share which Ratio IC50 value was measured for `Cc1ccc(N(Cc2ccccc2)C(=O)O[C@H]2CN3CCC2CC3)cc1` ?
Ans. 2.6

Qu. Entry under review: `Cc1cccc(N(Cc2cc(F)c(F)cc2F)C(=O)O[C@H]2CN3CCC2CC3)c1` . Reported Ratio IC50?
Ans. 32.7

Qu. Entry `O=C(O[C@H]1CN2CCC1CC2)N(Cc1ccccc1)c1ccccc1` : reported Ratio IC50 = ?
Ans. 3.1
